Test name: Toxicity liver stage against HepG2, at 10uM
Type: cell-based
Parameters: test concentration 10 uM, cell line HepG2-A16-CD81EGFP
Measurement parameters: human, HepG2-A16-CD81EGFP cells; read-out: INHIBITION
cytotoxicity at 10 µM values, listed per item
Assay endpoint: cytotoxicity at 10 µM (%)

>>> obs_value("COc1ncc(C2(O)CCN(Cc3ccccc3O)CC2)c(OC)n1")
2.33
>>> obs_value("O=C(C1CC=CC1)N1CC[C@H]2[C@@H]1CCC(=O)N2c1ccccc1")
8.88
>>> obs_value("COc1ccc(C(C)NCc2ccnn2C)cc1Cn1cccn1 (stereo unspecified)")
7.57
>>> obs_value("COCCNc1nnc(-c2ccccn2)s1")
6.1
>>> obs_value("Cc1ccsc1-c1nc(CN(C)Cc2noc(C(C)C)n2)c(C)o1")
-5.85
>>> obs_value("Cc1csc(N2CCN(C(=O)CCn3cccn3)CC2)n1")
-9.41
>>> obs_value("Cc1ccoc1C(=O)N1CCOC2(CCCC2)C1")
-4.55
>>> obs_value("CNC(=O)NC(=O)CSC(C)c1ccccc1F (stereo unspecified)")
-14.4
>>> obs_value("CN(C)c1ncnc2c1CCN(CC1CCOCC1)CC2")
-69.6
>>> obs_value("CCOc1ccc(Cl)cc1C1CCCCN1 (stereo unspecified)")
9.15
>>> obs_value("CCc1noc(CN2C[C@@H]3CC[C@H]2CN(C2Cc4ccccc4C2)C3)n1")
-0.268

* * *

Each item that follows carries a reported cytotoxicity at 10 µM.
Test name: Toxicity liver stage against HepG2, at 10uM
Format: cell-based
Design: test concentration 10 uM, cell line HepG2-A16-CD81EGFP
Measurement parameters: human, HepG2-A16-CD81EGFP cells; read-out: INHIBITION
Assay endpoint: cytotoxicity at 10 µM (%)

>>> obs_value("COc1cccc2c1OCCCN(c1nc3c(c(=O)[nH]1)CCNCC3)C2")
-5.24
>>> obs_value("COc1ccc(CNC(=O)c2ccc(Cl)cc2F)cc1C(=O)O")
-1.62
>>> obs_value("CC(O)CN1CCN(C(=O)c2ccc(N(C)C)nc2)CC1 (centres undefined)")
-9.78
>>> obs_value("COc1c(CC2CC(C(=O)O)=NO2)c(Br)c2c(c1OC)OCO2 (centres undefined)")
6.36
>>> obs_value("Cc1nc(N2CCN3CCCCC3C2)nc2cc(S(C)(=O)=O)ccc12 (centres undefined)")
-6.25
>>> obs_value("CC(=O)N(C)CC(=O)NC1(c2ccc(Cl)c(Cl)c2)CC1")
-5.57
>>> obs_value("c1cc(-c2ccc3c(c2)C2(CC3)CCN(c3nncs3)CC2)ccn1")
1.13
>>> obs_value("Cc1ncccc1Oc1nccnc1C1CCN(C(C)C)CC1")
-6.05
>>> obs_value("CCCc1nnc(N2CCC3(CC2)CN(C)C(=O)O3)o1")
2.64

* * *

Test name: Toxicity liver stage against HepG2, at 10uM
Assay type: cell-based
Design: test concentration 10 uM, cell line HepG2-A16-CD81EGFP
Measurement parameters: human, HepG2-A16-CD81EGFP cells; read-out: INHIBITION
Assay endpoint: cytotoxicity at 10 µM (%)

>>> obs_value("COC(=O)c1ccc(N(C(=O)c2cccnc2C)C(C)C)c(C)c1")
-8.58
>>> obs_value("CCc1nc2n(n1)CC(NCc1ccccc1OCC(=O)NC)CC2 (centres undefined)")
4.57
>>> obs_value("O=C(c1cccc2[nH]ncc12)N1CCCC1c1noc(C2CC2)n1 (centres undefined)")
-2.91
>>> obs_value("Cc1nc(C)n(CC2CCCCN2CC(=O)Nc2nnc(C)s2)n1 (centres undefined)")
-10.6
>>> obs_value("O=C(c1cnccn1)N1CCC2(CCN(Cc3ccsc3)CC2)CC1")
1.2
>>> obs_value("OC1(CN2CCCC2)CCCN(Cc2cnc(-c3ccccc3)nc2)C1 (centres undefined)")
-11.9
>>> obs_value("Cc1ccnc(NCCCN2CCc3ccccc32)n1")
0.979
>>> obs_value("CC1c2ncc(Cn3cncn3)n2CCN1C(=O)c1cscn1 (centres undefined)")
-17.5
>>> obs_value("Cc1ccc(CN2Cc3c(cnn3C)C(COCC3CC3)C2)s1 (centres undefined)")
3.91
>>> obs_value("CCN(CC1CCCO1)C(=O)Nc1cccc(N2CCOCC2)c1 (centres undefined)")
8.44
>>> obs_value("NC(=O)CSc1ccccc1NC(=O)CC1C=CCC1 (centres undefined)")
-131
>>> obs_value("c1coc(-c2noc(CN3CCC(c4ccn[nH]4)CC3)n2)c1")
-8.19
>>> obs_value("CN1CCN(Cc2cn3c(n2)CN(Cc2cccc(F)c2)CC3)CC1")
-125
>>> obs_value("O[C@H]1CN(Cc2cc3ccccc3o2)CC[C@@]12CCCO2")
-21.9
>>> obs_value("OC(CN1CCOCC1)c1ccc(Br)cc1 (centres undefined)")
-6.58
>>> obs_value("O=c1c2ccccc2nc2n1C(CSc1cccc(C(F)(F)F)c1)CN2 (centres undefined)")
12.9
>>> obs_value("O=C(NCC1CCOCC1)[C@@H]1C[C@@H]2[C@@H](CCN2Cc2ccoc2)O1")
5
>>> obs_value("O=C(CCC1CCCO1)NCc1ccccc1Cn1cncn1 (centres undefined)")
-4.05
>>> obs_value("c1cc(-c2nn3c(CN4CCOCC4)nnc3s2)ccn1")
11
>>> obs_value("CC(C)Cc1nc(OCC(N)=O)c(C#N)c2c1CCCC2")
-9.53
>>> obs_value("CSCC(=O)N1CCC(c2nccn2Cc2cscn2)CC1")
-6.6
>>> obs_value("C[C@@H]1CN(C(=O)c2nc3sccn3c2-c2ncc[nH]2)C[C@H](C)O1")
3.85
>>> obs_value("CCc1nnc2n1CCN(C(=O)c1nc(-c3ccco3)sc1C)C2")
-1.19
>>> obs_value("O=C(CC1COCCN1)NCCc1noc(-c2ccccc2)n1 (centres undefined)")
3.05
>>> obs_value("CN(C(=O)OC(C)(C)C)C1CCN(C(=O)c2cc(Cl)c[nH]2)C1 (centres undefined)")
2.5
>>> obs_value("CCn1ncc(C(=O)NCCc2nc(-c3cccnc3)n[nH]2)c1C")
1.94
>>> obs_value("c1ccc(-c2nnc(CNCC3CCCN3c3cccnn3)o2)cc1 (centres undefined)")
-10.5
>>> obs_value("CCOc1ncccc1C(=O)N1CCCC1c1c(C)nn(C)c1OC (centres undefined)")
-13
>>> obs_value("CCCc1nc(N2CCN(Cc3ccccn3)CC2)c2cnn(C)c2n1")
1.89

* * *

Test name: Toxicity liver stage against HepG2, at 10uM
Format: cell-based
Set-up: test concentration 10 uM, cell line HepG2-A16-CD81EGFP
Measurement parameters: human, HepG2-A16-CD81EGFP cells; read-out: INHIBITION
Recorded measurements of cytotoxicity at 10 µM, one per entry
Assay endpoint: cytotoxicity at 10 µM (%)

>>> obs_value("Cc1noc([C@@H]2CC[C@@H]3[C@@H](CCN3S(=O)(=O)c3cccnc3)O2)n1")
-13.1
>>> obs_value("Cc1nn(C)c(C)c1CN(C)c1nc(C2CC2)nc2c(C)nn(C)c12")
3.98
>>> obs_value("CCOC(=O)C1(O)CCN(C(=O)Nc2cccc(CC)c2)CC1")
-140
>>> obs_value("CC(C)c1nccn1CC1CCCN1Cc1nc2ccccc2n1C (configuration not stated)")
-43.9
>>> obs_value("Cc1cc(N(C)C)nc(C2(C)CCNCC2)n1")
7.79
>>> obs_value("Cn1cccc1C(=O)N1CCn2cc(CNC(=O)CC3CC3)nc2C1")
3.11
>>> obs_value("CCOc1no[n+]([O-])c1-c1ccccc1")
-6.59
>>> obs_value("Cc1cc(C)c(C(=O)NC2CCN(c3ncccc3C#N)CC2)c(=O)[nH]1")
7.24
>>> obs_value("O=C(NCCc1cccc(F)c1)NCC(O)c1cccc(F)c1 (configuration not stated)")
-13.1
>>> obs_value("CCc1nc(C2CCCN(C(=O)C3=NN(C(C)C)C(=O)CC3)C2)no1 (configuration not stated)")
-7.28
>>> obs_value("CC(C)NC(=O)[C@H]1CCS(=O)(=O)[C@@H]2CN(c3ncccn3)C[C@H]12")
-123
>>> obs_value("COCCN(Cc1ccoc1)C(=O)c1ccccc1OC")
6.28

* * *

Test name: Toxicity liver stage against HepG2, at 10uM
Type: cell-based
Parameters: test concentration 10 uM, cell line HepG2-A16-CD81EGFP
Measurement parameters: human, HepG2-A16-CD81EGFP cells; read-out: INHIBITION
Assay endpoint: cytotoxicity at 10 µM (%)

>>> obs_value("CC(C)CN1C[C@@H]2C[C@H](C(=O)N3CCCC3)[C@H](C1)O2")
3.17
>>> obs_value("Cc1ccc(N2CCCC(N(C)Cc3cc(C)on3)C2)nn1 (configuration not stated)")
17.5
>>> obs_value("N#CC1(C(=O)N2CCOC(c3ccc(Cl)cc3)C2)CCCC1 (configuration not stated)")
1.36
>>> obs_value("CCS(=O)(=O)N1C[C@@H](O)[C@H](Oc2cccc(F)c2)C1")
-3.65
>>> obs_value("CS(=O)(=O)N1C[C@@H]2COC[C@@H](CC(=O)N3CCCO3)[C@@H]2C1")
11.1
>>> obs_value("CCn1cc(CNC(=O)CCc2nnc(-c3ccc(C)s3)o2)cn1")
-2.83
>>> obs_value("NC(=O)CNC1(c2ccc(Br)cc2)CCOCC1")
-0.717
